target: FGFR2 Kinase (Homo sapiens); assay: FGFR2 kinase inhibition; assay type: biochemical; conditions: percent inhibition of control enzyme activity; test concentration not given
Sequence (P21802 22-821): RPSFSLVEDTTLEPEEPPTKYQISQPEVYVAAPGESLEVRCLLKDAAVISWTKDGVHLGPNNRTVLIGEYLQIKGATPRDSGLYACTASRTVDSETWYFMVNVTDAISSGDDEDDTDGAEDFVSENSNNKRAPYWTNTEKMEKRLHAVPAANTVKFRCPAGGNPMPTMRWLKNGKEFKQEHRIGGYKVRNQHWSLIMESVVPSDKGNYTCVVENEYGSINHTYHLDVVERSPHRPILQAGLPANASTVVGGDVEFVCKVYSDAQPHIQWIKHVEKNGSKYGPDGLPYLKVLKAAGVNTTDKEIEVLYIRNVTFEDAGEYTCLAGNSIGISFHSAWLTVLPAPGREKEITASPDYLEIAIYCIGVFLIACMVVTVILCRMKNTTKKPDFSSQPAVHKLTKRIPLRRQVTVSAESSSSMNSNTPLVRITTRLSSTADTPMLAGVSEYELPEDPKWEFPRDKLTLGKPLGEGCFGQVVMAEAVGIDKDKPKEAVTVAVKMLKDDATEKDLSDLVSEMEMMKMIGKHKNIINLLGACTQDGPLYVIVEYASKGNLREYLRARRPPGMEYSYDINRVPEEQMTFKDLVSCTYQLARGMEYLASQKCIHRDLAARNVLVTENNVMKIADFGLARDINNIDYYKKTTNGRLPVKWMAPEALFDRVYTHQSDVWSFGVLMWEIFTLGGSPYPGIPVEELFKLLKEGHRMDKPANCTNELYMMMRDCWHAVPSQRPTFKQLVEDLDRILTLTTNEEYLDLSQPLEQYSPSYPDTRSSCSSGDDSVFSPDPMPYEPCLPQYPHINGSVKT
*: point of attachment. Palmitoyl = CCCCCCCCCCCCCCCC(=O)*
Assign FGFR2 Kinase % Inhibition to each entry below.
Answers are plain numbers, in %.

Completed entries (count: 5):
SUBSTANCE | ASSAY_TARGET | FGFR2 Kinase % Inhibition, %
Palm-Lys-Ala-Asn-Leu-Pro-Leu-Gly-Asn-Tyr-Lys-Lys-Pro-NH2 (Palmitoyl-KANLPLGNYKKP-NH2; SMILES CCCCCCCCCCCCCCCC(=O)N[C@@H](CCCCN)C(=O)N[C@@H](C)C(=O)N[C@@H](CC(N)=O)C(=O)N[C@@H](CC(C)C)C(=O)N1CCC[C@H]1C(=O)N[C@@H](CC(C)C)C(=O)NCC(=O)N[C@@H](CC(N)=O)C(=O)N[C@@H](Cc1ccc(O)cc1)C(=O)N[C@@H](CCCCN)C(=O)N[C@@H](CCCCN)C(=O)N1CCC[C@H]1C(N)=O) [Peptide 2] | FGFR2 Kinase (Homo sapiens) | 96.3
Palm-Lys-Phe-Asn-Leu-Pro-Leu-Ala-Asn-Tyr-Lys-Lys-Pro-NH2 (Palmitoyl-KFNLPLANYKKP-NH2; SMILES CCCCCCCCCCCCCCCC(=O)N[C@@H](CCCCN)C(=O)N[C@@H](Cc1ccccc1)C(=O)N[C@@H](CC(N)=O)C(=O)N[C@@H](CC(C)C)C(=O)N1CCC[C@H]1C(=O)N[C@@H](CC(C)C)C(=O)N[C@@H](C)C(=O)N[C@@H](CC(N)=O)C(=O)N[C@@H](Cc1ccc(O)cc1)C(=O)N[C@@H](CCCCN)C(=O)N[C@@H](CCCCN)C(=O)N1CCC[C@H]1C(N)=O) [Peptide 7] | FGFR2 Kinase (Homo sapiens) | 98.4
Palm-Lys-Phe-Asn-Leu-Pro-Ala-Gly-Asn-Tyr-Lys-Lys-Pro-NH2 (Palmitoyl-KFNLPAGNYKKP-NH2; SMILES CCCCCCCCCCCCCCCC(=O)N[C@@H](CCCCN)C(=O)N[C@@H](Cc1ccccc1)C(=O)N[C@@H](CC(N)=O)C(=O)N[C@@H](CC(C)C)C(=O)N1CCC[C@H]1C(=O)N[C@@H](C)C(=O)NCC(=O)N[C@@H](CC(N)=O)C(=O)N[C@@H](Cc1ccc(O)cc1)C(=O)N[C@@H](CCCCN)C(=O)N[C@@H](CCCCN)C(=O)N1CCC[C@H]1C(N)=O) [Peptide 6] | FGFR2 Kinase (Homo sapiens) | 98.8
Palm-Lys-Phe-Asn-Leu-Pro-Leu-Gly-Ala-Tyr-Lys-Lys-Pro-NH2 (Palmitoyl-KFNLPLGAYKKP-NH2; SMILES CCCCCCCCCCCCCCCC(=O)N[C@@H](CCCCN)C(=O)N[C@@H](Cc1ccccc1)C(=O)N[C@@H](CC(N)=O)C(=O)N[C@@H](CC(C)C)C(=O)N1CCC[C@H]1C(=O)N[C@@H](CC(C)C)C(=O)NCC(=O)N[C@@H](C)C(=O)N[C@@H](Cc1ccc(O)cc1)C(=O)N[C@@H](CCCCN)C(=O)N[C@@H](CCCCN)C(=O)N1CCC[C@H]1C(N)=O) [Peptide 8] | FGFR2 Kinase (Homo sapiens) | 98.8
Palm-Lys-Phe-Asn-Leu-Pro-Leu-Gly-Asn-Tyr-Lys-Lys-Ala-NH2 (Palmitoyl-KFNLPLGNYKKA-NH2; SMILES CCCCCCCCCCCCCCCC(=O)N[C@@H](CCCCN)C(=O)N[C@@H](Cc1ccccc1)C(=O)N[C@@H](CC(N)=O)C(=O)N[C@@H](CC(C)C)C(=O)N1CCC[C@H]1C(=O)N[C@@H](CC(C)C)C(=O)NCC(=O)N[C@@H](CC(N)=O)C(=O)N[C@@H](Cc1ccc(O)cc1)C(=O)N[C@@H](CCCCN)C(=O)N[C@@H](CCCCN)C(=O)N[C@@H](C)C(N)=O) [Peptide 12] | FGFR2 Kinase (Homo sapiens) | 90.1

Working through the 2 substances below one at a time, give FGFR2 Kinase % Inhibition for each.
1. Palm-Lys-Phe-Ala-Leu-Pro-Leu-Gly-Asn-Tyr-Lys-Lys-Pro-NH2 (Palmitoyl-KFALPLGNYKKP-NH2; SMILES CCCCCCCCCCCCCCCC(=O)N[C@@H](CCCCN)C(=O)N[C@@H](Cc1ccccc1)C(=O)N[C@@H](C)C(=O)N[C@@H](CC(C)C)C(=O)N1CCC[C@H]1C(=O)N[C@@H](CC(C)C)C(=O)NCC(=O)N[C@@H](CC(N)=O)C(=O)N[C@@H](Cc1ccc(O)cc1)C(=O)N[C@@H](CCCCN)C(=O)N[C@@H](CCCCN)C(=O)N1CCC[C@H]1C(N)=O) [Peptide 3]
2. Palm-Lys-Phe-Asn-Leu-Pro-Leu-Gly-Asn-Tyr-Lys-Lys-Pro-NH2 (Palmitoyl-KFNLPLGNYKKP-NH2; SMILES CCCCCCCCCCCCCCCC(=O)N[C@@H](CCCCN)C(=O)N[C@@H](Cc1ccccc1)C(=O)N[C@@H](CC(N)=O)C(=O)N[C@@H](CC(C)C)C(=O)N1CCC[C@H]1C(=O)N[C@@H](CC(C)C)C(=O)NCC(=O)N[C@@H](CC(N)=O)C(=O)N[C@@H](Cc1ccc(O)cc1)C(=O)N[C@@H](CCCCN)C(=O)N[C@@H](CCCCN)C(=O)N1CCC[C@H]1C(N)=O) [Peptide 1]

1. 98.7
2. 95.4
